- Tested on: NCI-H23 lung
- protocol-details: NCI-60 one-dose screen, 48 h
- condition-notes: 10 µM unless noted
- Method: Growth inhibition of the NCI-H23 human Non-Small Cell Lung tumor cell line is measured as a screen for anti-cancer activity. Cells are grown in 96 well plates and exposed to the test compound for 48 hours. Compounds are tested at a single concentration, which is 10^-5 M for most compounds. The reported endpoint is percent growth (GI% or GIPRCNT), where numbers from 0 - 100% represent growth inhibition, and numbers from -100% - 0 represent cell death. […]
About 83,000 compounds went through this panel and 20% of them were active in at least one assay; those are over-represented in the sample as a whole. Calls of active or inactive are those of the source. The calls were made as follows: active = growth percent below 10; inactive = the rest.
Give one outcome, nothing more. List: active, inactive

{"columns": ["compound", "study-target", "class-assignment"],
 "data": [
  ["Nc1nc(-c2cccc([N+](=O)[O-])c2)c(N=Nc2ccccc2Cl)s1", "NCI-H23 lung", "inactive"],
  ["CCCCCc1ccc(S(=O)(=O)N(C(C)=O)c2cccc(-c3csc(N(CCN4CCN(C)CC4)C(C)=O)n3)c2)cc1", "NCI-H23 lung", "inactive"],
  ["CC[C@@](C)(NC(=O)C(C)(C)NC(=O)[C@@H](NC(=O)[C@@H]1CCCN1C(=O)C(C)(C)NC(=O)[C@H](CC(C)C)NC(=O)CNC(=O)C(C)(C)NC(=O)[C@@H](NC(=O)C(C)(C)NC(=O)[C@H](CCC(N)=O)NC(=O)[C@H](C)NC(=O)C(C)(C)NC(=O)[C@H](C)NC(=O)C(C)(C)NC(=O)[C@@H]1CCCN1C(=O)C(C)(C)NC(C)=O)C(C)C)C(C)C)C(=O)N[C@@H](CCC(N)=O)C(=O)N[C@@H](CCC(N)=O)C(=O)N[C@H](CO)Cc1ccccc1", "NCI-H23 lung", "inactive"],
  ["Cc1ccc(-n2cc(/C=C/C(=O)c3ccc(S(C)(=O)=O)cc3)c(-c3ccc(S(C)(=O)=O)cc3)n2)cc1", "NCI-H23 lung", "inactive"],
  ["CC(=O)NC(C)(C)C(=O)N1CCC[C@H]1C(=O)NC(C)(C)C(=O)N[C@@H](C)C(=O)NC(C)(C)C(=O)NC(C)(C)C(=O)N[C@@H](CCC(N)=O)C(=O)NC(C)(C)C(=O)N[C@H](C(=O)NC(C)(C)C(=O)NCC(=O)N[C@@H](CC(C)C)C(=O)NC(C)(C)C(=O)N1CCC[C@H]1C(=O)N[C@H](C(=O)NC(C)(C)C(=O)NC(C)(C)C(=O)N[C@@H](CCC(N)=O)C(=O)N[C@@H](CCC(N)=O)C(=O)N[C@H](CO)Cc1ccccc1)C(C)C)C(C)C", "NCI-H23 lung", "inactive"],
  ["O=C1Nc2ccc(Cl)cc2/C1=C/c1ccc(OCc2ccc(F)cc2)cc1", "NCI-H23 lung", "inactive"],
  ["COc1cc2c3c(n(CCCNC4CCCCC4)c(=O)c2cc1OC)-c1cc2c(cc1C3=O)OCO2", "NCI-H23 lung", "active"],
  ["CCOC(=O)c1c(NCC(=O)Nc2cccc(Cl)c2)sc2c1CCCC2", "NCI-H23 lung", "inactive"]
]}

Data request: Fill in: this test's call for `CN1CCN(c2ccc(C(=O)Nc3cccc(-c4cn(-c5ccc(S(N)(=O)=O)cc5)nn4)c3)cc2C(F)(F)F)CC1` is ___
Data returned: inactive

Data request: What about this compound? `Clc1ccc(-c2csc(Nc3cccc(Nc4csc(-c5ccc(Cl)cc5)n4)c3)n2)cc1`
Data returned: inactive

Data request: What about this compound? O=S(=O)(NC1CC2CCC1C2)c1ccc2c(c1)C(=NO)c1cc(S(=O)(=O)NC3CC4CCC3C4)ccc1-2 (stereo unspecified)
Data returned: active

Data request: What about this compound? `CC(=O)C1=NN(c2ccc(Cl)cc2)C(=O)CN1C`
Data returned: inactive

Data request: What about this compound? `O=C(Nc1ccc(Cl)cc1)Nc1nc2ccc([N+](=O)[O-])cc2s1`
Data returned: active

Data request: What about this compound? `COc1cc(/C=C/C(=O)c2ccc(NC(=O)CSc3nnc(-c4ccc5nc(-c6ccccc6)[nH]c5c4)o3)cc2)cc(OC)c1OC`
Data returned: inactive

Data request: What about this compound? `Nc1ccc(-c2nnc(SCc3ccc(O)c4ncccc34)n2-c2ccccc2)cc1`
Data returned: inactive

Data request: What about this compound? `Cn1c2ccc(Br)cc2c2c3c(c4c5cc(F)ccc5oc4c21)C(=O)N(O)C3=O`
Data returned: inactive

---

- Test system: HOP-62 NSCLC
- protocol-details: NCI-60 one-dose screen, 48 h (100 = growth as untreated, 0 = no growth, -100 = all killed)
- condition-notes: 10 µM unless noted
Compounds without any hit were thinned out: in the full panel of roughly 83,000, 20% have a hit. Active and inactive are the calls of the source. Rule for the calls: active = growth percent below 10; inactive = the rest.
reported-property: growth

// known answers, use as guide
{"columns": ["substance-smiles", "data-value"],
 "data": [
  ["COC(=O)[C@@]1(C)CC[C@]2(C)CC[C@]3(C)C(=CC(=O)[C@@H]4[C@@]5(C)Cc6c(n(CC#CCN7CCN(C)CC7)c7ccccc67)C(C)(C)[C@@H]5CC[C@]43C)[C@@H]2C1", "113% (inactive)"],
  ["N#Cc1c(NC(=O)c2ccccc2C(F)(F)F)sc2c1CCC(=O)C2", "33% (inactive)"],
  ["Cc1csc(Nc2cccc(Nc3nc(C)cs3)c2)n1", "98.8% (inactive)"],
  ["CCc1ccc(NC(=O)N[C@@H](Cc2cc(F)cc(F)c2)C(=O)N[C@@H]2C(=O)N3CCC[C@H]3C(=O)N3CCO[C@H](C)[C@H]3C(=O)N[C@@H](CO)C(=O)N3C[C@H](C)C[C@H]3C(=O)O[C@H]2C)c(F)c1", "32.6% (inactive)"],
  ["NS(=O)(=O)c1ccc(Nc2nc(N/N=C/c3ccc(C(F)(F)F)cc3)nc(Nc3ccccc3)n2)cc1", "38% (inactive)"],
  ["O=c1c2c(O)cccc2oc2c3c(cc(O)c12)O[C@H]1OC=C[C@@H]31", "82.4% (inactive)"],
  ["CCN(CC)CCN1C(=O)c2c(c3c4cc(Br)ccc4[nH]c3c3ccc4ccccc4c23)C1=O", "-66.9% (active)"]
]}

Okay, now this molecule:
Data request: // growth lookup, key: `CCN(CC)CCN1C(=O)c2c(c3c4cccnc4[nH]c3c3ccc4ccccc4c23)C1=O`
Data returned: 38.4% (inactive)

---

- Tested on: A498 renal
- protocol-details: NCI-60 one-dose screen, 48 h (100 = growth as untreated, 0 = no growth, -100 = all killed)
- condition-notes: 10 µM unless noted
The panel holds about 83,000 compounds, 20% with a hit somewhere; the sample as a whole holds those more often.
reported-property: growth (%)
Reply with just the number (in %).

// known answers, use as guide
{"columns": ["compound", "data-value"],
 "data": [
  ["COc1ccc2c(c1)c(-c1nn3c(=O)cc(-c4ccccc4)nc3s1)cn2C", 4.32],
  ["Cc1cc(C(=O)Nc2ccc(SC#N)cc2)c(C)o1", 94.4],
  ["O=C(O)c1ccc(-n2cc(CNc3ccc(Cl)cc3)c(-c3ccc(F)cc3)n2)cc1", 88.6]
]}

Data request: // growth lookup, key: `O=C(NNc1nc2cc(F)cc(F)c2n2cccc12)c1ncccn1`
Data returned: 23.8

Data request: What about this compound? `COc1cc2c3c(n(CCCNC4CCCC4)c(=O)c2cc1OC)-c1cc2c(cc1C3=O)OCO2`
Data returned: 80.3

Data request: What about this compound? `COc1cnc2c(c1)C(=O)c1c-2n(CCCn2ccnc2)c(=O)c2cc(OC)c(OC)cc12`
Data returned: 17.8

Data request: What about this compound? `O=c1cc(-c2ccccc2)nc2sc(-c3c[nH]c4ccc(Br)cc34)nn12`
Data returned: 85.5

Data request: What about this compound? `O=C(CSc1nnc(-c2cccs2)n1-c1ccccc1)Nc1ccc(F)cc1`
Data returned: 84.7

Data request: What about this compound? `CS(=O)(=O)c1nccc(-c2c(-c3ccc(F)c(OCCc4ccc(F)cc4)c3)nc3sccn23)n1`
Data returned: 29.1

Data request: What about this compound? `COc1cc2c3c(n(CCCN4CCCC4)c(=O)c2cc1OC)-c1cc2c(cc1C3=O)OCO2`
Data returned: 80.2

Data request: What about this compound? `C#C[C@]1(O)CC[C@H]2[C@@H]3CC=C4c5sc(Nc6cc(Cl)ccn6)nc5CC[C@]4(C)[C@H]3CC[C@@]21C`
Data returned: -42.4

Data request: What about this compound? `COc1ccc(NC(=O)[C@H](C)N)cc1C(=O)Nc1cccc(-c2cc(=O)c3c(OC)c(OC)c(OC)cc3o2)c1`
Data returned: 50.9

Data request: What about this compound? `COCCOc1ccc(-c2csc(NC(=O)CN3CCN(CCO)CC3)n2)cc1NS(=O)(=O)c1cccc2c(N(C)C)cccc12`
Data returned: 79.4
